Each entry below carries its recorded melting point.

Worked cases, melting point given:
[[record]]
molecule = "O=c1ccc(C(F)(F)F)n[nH]1"
result = "125 to 127 °C"

[[record]]
molecule = "O=C(O)c1ccc(S(=O)(=O)NCc2ccco2)cc1"
result = "229 to 231 °C"

[[record]]
molecule = "CCCC(N)c1nnn[nH]1 (configuration not stated)"
result = "277 to 279 °C"

[[record]]
molecule = "Nc1ccccc1N1CCOC1=O"
result = "88 to 90 °C"


Exercise: Give the measured melting point of "COc1ccc(Oc2ccc(C=O)cc2)cc1" .
Key: 65 to 67 °C

====

measuredParameter: melting point

[[record]]
molecule = "CN(CC(=O)O)S(C)(=O)=O"
result = "54 to 56 °C"


Exercise: Give the measured melting point of "Cc1c(C(=O)O)sc2ccc(F)cc12" .
Key: 289 to 291 °C

Exercise: Give the measured melting point of "COc1ccc(Oc2ccc(N)cn2)cc1" .
Key: 95 to 97 °C

Exercise: Give the measured melting point of "COc1cc2ncc(Cl)nc2cc1OC" .
Key: 149 to 151 °C

Exercise: Give the measured melting point of "COCCOc1cccc(CC(=O)O)c1" .
Key: 47 to 49 °C

Exercise: Give the measured melting point of "Cc1ccc2[nH]c(=O)n3nc(C4CC4)nc3c2c1" .
Key: 260 to 262 °C
